- System tested: Cathepsin D (Homo sapiens)
- Sequence (P07339 65-162 limits assumed): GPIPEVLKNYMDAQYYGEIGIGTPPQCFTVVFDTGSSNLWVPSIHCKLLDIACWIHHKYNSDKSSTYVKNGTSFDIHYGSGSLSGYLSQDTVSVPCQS
- Sequence (P07339 169-412 limits assumed): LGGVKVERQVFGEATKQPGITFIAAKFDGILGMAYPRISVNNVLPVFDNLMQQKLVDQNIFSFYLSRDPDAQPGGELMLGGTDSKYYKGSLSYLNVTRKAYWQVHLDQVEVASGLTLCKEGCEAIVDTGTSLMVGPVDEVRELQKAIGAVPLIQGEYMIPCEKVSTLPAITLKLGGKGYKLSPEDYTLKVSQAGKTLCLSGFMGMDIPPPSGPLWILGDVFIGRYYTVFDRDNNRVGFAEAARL
pIC50: −log10 of the molar value.
Mark false for pIC50 values under 6, and true for everything at or above.

Incoming: Please tell me: is the compound C[C@H]1C[C@@H](N2C(=N)N[C@](C)(c3cccc(-c4ccc(OC(F)(F)F)nc4)c3Cl)CC2=O)CCS1(=O)=O at or over 6 in terms of pIC50?
Outgoing: false

Incoming: Please tell me: is the compound C[C@H]1C[C@@H](N2C(=N)N[C@](C)(c3cccc(-c4ccc(OC(F)(F)F)cc4Cl)c3Cl)CC2=O)CCO1 at or over 6 in terms of pIC50?
Outgoing: false

Incoming: Please tell me: is the compound C[C@@H]1C[C@H](N2C(=N)N[C@](C)(c3cccc(-c4cccc(Cl)c4)c3Cl)CC2=O)CC[C@@H]1O at or over 6 in terms of pIC50?
Outgoing: true

Incoming: Please tell me: is the compound C[C@H]1C[C@@H](N2C(=N)N[C@](C)(c3cccc(-c4ccc(F)cc4F)c3Cl)CC2=O)CCN1C at or over 6 in terms of pIC50?
Outgoing: false

Incoming: Please tell me: is the compound CN(C)[C@H]1C[C@@H](N2C(=N)N[C@](C)(c3cccc(-c4ccc(F)cc4F)c3Cl)CC2=O)C1 at or over 6 in terms of pIC50?
Outgoing: false

Incoming: Please tell me: is the compound C[C@H]1C[C@@H](N2C(=N)N[C@](C)(c3cccc(-c4ccc(F)cc4F)c3Cl)CC2=O)CCS1(=O)=O at or over 6 in terms of pIC50?
Outgoing: true

Incoming: Please tell me: is the compound C[C@H]1C[C@@H](N2C(=N)N[C@](C)(c3cccc(-c4ccc(C5CC5)nc4)c3Cl)CC2=O)CCS1(=O)=O at or over 6 in terms of pIC50?
Outgoing: false

----------
Can you tell me hepatocyte CLint at 0.5 µM for the items I'm about to list?
- Procedure text: Intrinsic clearance in human hepatocytes assessed per 10^6 cells at 0.5 uM measured after 120 min by HRMS method
- Format: ADME, cell-based, Hepatocyte
- Condition info: read-out: CLH
Respond numerically; units are µL/min/1e6 cells and should not be typed.

Incoming: Please look up its hepatocyte CLint at 0.5 µM: C[C@H]1C[C@@H](N2C(=N)N[C@](C)(c3cccc(-c4cccc(Cl)c4)c3Cl)CC2=O)CCO1
Outgoing: 26

Incoming: Please look up its hepatocyte CLint at 0.5 µM: C[C@H]1C[C@@H](N2C(=N)N[C@](C)(c3cccc(-c4ccc(F)cc4F)c3Cl)CC2=O)CCO1
Outgoing: 18

Incoming: Please look up its hepatocyte CLint at 0.5 µM: C[C@H]1C[C@@H](N2C(=N)N[C@](C)(c3cccc(-c4cncc(Cl)c4)c3Cl)CC2=O)CCO1
Outgoing: 75

Incoming: Please look up its hepatocyte CLint at 0.5 µM: C[C@@]1(c2cccc(-c3ccc(F)cc3F)c2Cl)CC(=O)N([C@H]2CCC(F)(F)[C@@H](O)C2)C(=N)N1
Outgoing: 4.7

Incoming: Please look up its hepatocyte CLint at 0.5 µM: C[C@H]1C[C@@H](N2C(=N)N[C@](C)(c3cccc(-c4ccc(Cl)cc4Cl)c3Cl)CC2=O)CCO1
Outgoing: 5.7

Incoming: Please look up its hepatocyte CLint at 0.5 µM: C[C@@H]1C[C@H](N2C(=N)N[C@](C)(c3cccc(-c4cccc(Cl)c4)c3Cl)CC2=O)CC[C@@H]1O
Outgoing: 25

Incoming: Please look up its hepatocyte CLint at 0.5 µM: C[C@H]1C[C@@H](N2C(=N)N[C@](C)(c3cccc(-c4ccc(F)cc4F)c3Cl)CC2=O)CCS1(=O)=O
Outgoing: 3.3

Incoming: Please look up its hepatocyte CLint at 0.5 µM: C[C@H]1C[C@@H](N2C(=N)N[C@](C)(c3cccc(-c4ccc(F)cc4F)c3Cl)CC2=O)CCN1C
Outgoing: 8.2

Incoming: Please look up its hepatocyte CLint at 0.5 µM: C[C@H]1C[C@@H](N2C(=N)N[C@](C)(c3cccc(NC(=O)c4cccc(C#N)c4)c3Cl)CC2=O)CCO1
Outgoing: 4

Incoming: Please look up its hepatocyte CLint at 0.5 µM: C[C@@]1(c2cccc(-c3cccc(Cl)c3)c2Cl)CC(=O)N([C@H]2CCOC[C@@H]2O)C(=N)N1
Outgoing: 8.2

Incoming: Please look up its hepatocyte CLint at 0.5 µM: C[C@H]1C[C@@H](N2C(=N)N[C@](C)(c3cccc(-c4ccc5ncn(CC(F)(F)F)c5c4)c3Cl)CC2=O)CCO1
Outgoing: 46

Incoming: Please look up its hepatocyte CLint at 0.5 µM: C[C@H]1C[C@@H](N2C(=N)N[C@](C)(c3cccc(-c4cnn5cccnc45)c3Cl)CC2=O)CCO1
Outgoing: 18

Incoming: Please look up its hepatocyte CLint at 0.5 µM: CN(C)[C@H]1C[C@@H](N2C(=N)N[C@](C)(c3cccc(-c4ccc(F)cc4F)c3Cl)CC2=O)C1
Outgoing: 16

Incoming: Please look up its hepatocyte CLint at 0.5 µM: C[C@H]1C[C@@H](N2C(=N)N[C@](C)(c3cccc(-c4ccccc4Cl)c3Cl)CC2=O)CCO1
Outgoing: 29

The origin of these recorded values is ChEMBL document CHEMBL5370686.
